# measurementProtocol: MM1S myeloma cell viability, profiling panel, resazurin fluorescence, basal, 24 h, PK04 Diversity Set (AID 1174);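 note: MM1S multiple myeloma cell line; test concentration not given here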
# runConditions: higher = more signal, called active from +8 up or from −8 down
Here the recorded z-score is given for each entry.
Answer using only a numeral; do not append any unit.

Record excerpt, results attached:
INSERT INTO results (compound, experimentalvalue) VALUES
  ('COC(=O)[C@@]1(Cc2ccc(OC)cc2)[C@H]2c3cc(C(=O)N(C)C)n(C)c3C[C@H]2CN1C(=O)c1ccccc1', -2.26),
  ('COCCOC(=O)N1C(=O)[C@@]2(c3cc(C#CCC(C(=O)OC)C(=O)OC)ccc31)[C@H](C(=O)N1CCN(c3ncccn3)CC1)[C@H]1C(=O)O[C@H](c3ccccc3)[C@H](c3ccccc3)N1[C@@H]2c1ccccc1OCCO', -0.0626),
  ('CC(CO)N1C(=O)[C@@H]2C3C(=O)OCCC/C=C\[C@H]3OC23C=CCN(C(C)(C)C)C(=O)[C@@H]13 (some centres undefined)', -0.261);

// below: z-score requested for another compound
Req: Sample [N-]=[N+]=NCc1ccccc1C[C@]1(C(=O)N2CCCCC2)N=C(c2ccc(OCCCO)cc2)O[C@H]1c1ccccc1N=[N+]=[N-] — what was its z-score?
Resp: -2.36

Hey, just so you know, these numbers are from PubChem BioAssay.
